- Tested on: PPARg homodimer (NR concentration 180 nM)
- PROTOCOL TEXT: PBM binding z-score (relative to random genomic background probes); higher = stronger binding; sequences stand for … in GC…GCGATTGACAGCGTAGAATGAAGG
# if value of PBM binding z-score reaches 0.6, tag Criterion met; if it stays below, tag Criterion not met

# count of solved cases: 4
| BIOSEQUENCE | TARGET UNDER TEST | CATEGORY |
| --- | --- | --- |
| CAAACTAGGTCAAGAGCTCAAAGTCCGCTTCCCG | PPARg homodimer (NR concentration 180 nM) | Criterion met |
| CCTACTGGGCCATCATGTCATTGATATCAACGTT | PPARg homodimer (NR concentration 180 nM) | Criterion met |
| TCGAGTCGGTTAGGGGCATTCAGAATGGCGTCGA | PPARg homodimer (NR concentration 180 nM) | Criterion not met |
| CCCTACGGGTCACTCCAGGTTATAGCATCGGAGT | PPARg homodimer (NR concentration 180 nM) | Criterion met |

Here is the next item to consider.
Challenge: Is the recorded value of PBM binding z-score equal to or greater than 0.6 for this sequence? "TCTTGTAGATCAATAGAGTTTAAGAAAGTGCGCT"
Response given: Criterion not met

Hey, just so you know, these numbers are from the supplement of paper PMC6555819.
